Tested on: HCT-15
Define the label as rule met when GI50 is strictly less than 20 µM and as rule not met in all remaining cases.

[
  {
    "Compound": "CC(=O)OC12CC(C(F)(F)F)(C(F)(F)F)OC1(OC(C)=O)CC(C(F)(F)F)(C(F)(F)F)O2 (stereo not drawn)",
    "Category": "rule met"
  },
  {
    "Compound": "Cn1c([N+](=O)[O-])cnc1CN1CCN(CCO)CC1",
    "Category": "rule not met"
  },
  {
    "Compound": "CCN(CC)C(=O)CCCCCCCCC1CO1 (stereo not drawn)",
    "Category": "rule not met"
  }
]

GI50 strictly < 20 µM for this compound? `COc1ccc(Nc2nc3cc(C(F)(F)F)ccc3nc2-c2ccccc2)cc1OC`
rule not met

GI50 strictly < 20 µM for this compound? `N#Cc1nc(-c2cccs2)oc1N`
rule not met

GI50 strictly < 20 µM for this compound? `CN(C)c1ccc(/C=C2\N=C(c3ccccc3)N(/N=C3\C(=O)Nc4ccccc43)C2=O)cc1`
rule not met

GI50 strictly < 20 µM for this compound? `Cc1nc(-c2ccccc2)cn2c1nc1ccccc12`
rule met
